target: S1P1 receptors in HCtAECs (Homo sapiens)
Sequence (P21453 whole entry): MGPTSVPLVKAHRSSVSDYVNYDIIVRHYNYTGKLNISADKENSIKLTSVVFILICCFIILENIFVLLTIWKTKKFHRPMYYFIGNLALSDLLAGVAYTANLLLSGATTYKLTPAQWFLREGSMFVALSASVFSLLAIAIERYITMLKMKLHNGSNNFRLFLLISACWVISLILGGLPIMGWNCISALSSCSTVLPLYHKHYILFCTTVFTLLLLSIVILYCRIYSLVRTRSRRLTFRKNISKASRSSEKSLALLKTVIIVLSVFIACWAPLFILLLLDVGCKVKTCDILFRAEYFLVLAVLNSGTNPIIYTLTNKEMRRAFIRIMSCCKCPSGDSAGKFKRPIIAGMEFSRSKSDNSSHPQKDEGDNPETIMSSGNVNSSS
method description: cAMP assay
measured parameter: pIC50
One number for each entry, as −log10 of the molar value.

IN: Fill in the recorded pIC50 for this compound, with S1P1 receptors in HCtAECs (Homo sapiens) as test system: C[C@H](Oc1ccc(-c2nc(-c3ccc4[nH]cnc4c3)no2)cc1C(F)(F)F)C(F)(F)F.Cl
OUT: 8.68

###

method description: Plasma concentration of ASP4058 in rat aneurysm model
Assay type: in vivo, rats
condition description: plasma, oral, 0.01 mg·kg^−1
measured parameter: concentration at 2 h (nM)
Numbers only, in nM.

IN: Fill in the blank: the reported concentration at 2 h of C[C@H](Oc1ccc(-c2nc(-c3ccc4[nH]cnc4c3)no2)cc1C(F)(F)F)C(F)(F)F.Cl [ASP4058] is ____.
OUT: 4.9

###

method description: Plasma concentration of ASP4058 in rat aneurysm model
Assay type: in vivo, rats
condition description: plasma, oral, 0.01 mg·kg^−1
measured parameter: concentration at 24 h (nM)
Numbers only, in nM.

IN: Entry C[C@H](Oc1ccc(-c2nc(-c3ccc4[nH]cnc4c3)no2)cc1C(F)(F)F)C(F)(F)F.Cl : reported concentration at 24 h = ?
OUT: 4.5

###

method description: Plasma concentration of ASP4058 in rat aneurysm model
Assay type: in vivo, rats
condition description: plasma, oral, 0.01 mg·kg^−1
measured parameter: concentration at 1 h (nM)
One number for each entry, in nM.

IN: Given C[C@H](Oc1ccc(-c2nc(-c3ccc4[nH]cnc4c3)no2)cc1C(F)(F)F)C(F)(F)F.Cl , state its recorded concentration at 1 h.
OUT: 6.3
